From: patent US9914730B2

Biological target: full-length human PKCι (Homo sapiens, UniProt P41743)
Construct: Recombinant, full-length human PKCι expressed in Sf21 insect cells is also commercially available
Sequence (P41743 1-596): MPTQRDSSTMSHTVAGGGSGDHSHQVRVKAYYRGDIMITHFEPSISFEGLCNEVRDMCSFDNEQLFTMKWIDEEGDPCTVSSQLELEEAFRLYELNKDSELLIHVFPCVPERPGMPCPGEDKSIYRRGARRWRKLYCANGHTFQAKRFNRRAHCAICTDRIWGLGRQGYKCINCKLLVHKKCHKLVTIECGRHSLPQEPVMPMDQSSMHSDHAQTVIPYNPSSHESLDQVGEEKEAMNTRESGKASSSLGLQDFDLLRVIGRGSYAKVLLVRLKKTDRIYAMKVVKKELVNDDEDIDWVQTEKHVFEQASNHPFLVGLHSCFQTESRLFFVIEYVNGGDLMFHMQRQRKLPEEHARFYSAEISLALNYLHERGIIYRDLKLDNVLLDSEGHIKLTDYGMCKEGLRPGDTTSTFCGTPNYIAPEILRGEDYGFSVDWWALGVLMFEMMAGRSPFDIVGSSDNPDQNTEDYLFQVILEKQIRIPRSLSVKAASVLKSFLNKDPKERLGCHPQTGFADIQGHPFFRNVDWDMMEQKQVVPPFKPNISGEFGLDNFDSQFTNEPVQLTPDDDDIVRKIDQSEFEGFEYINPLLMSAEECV
Assay: PKCι IC50 IMAP assay, full-length PKCι at 150 μM ATP
Conditions: read-out: IC50 in IMAP assay against full length PKCi at 150 μM ATP
Endpoint label: IC50

The cases that follow already have their IC50 on record.
Cn1cc(-c2nccc3c(NC[C@@H](N)Cc4ccccc4)nc(-c4ccncc4)nc23)cn1 [Example 98] | 1000 to 10000 nM
COC[C@H]1CN(c2nc(-c3ccnc4[nH]ccc34)nc3cncc(OC)c23)CCN1 [Example 1205] | 100 to 1000 nM
OCC1CCN(c2nc(-c3ccnc4[nH]c(C(F)(F)F)cc34)nc3cncc(C4CC4)c23)CC1 [Example 1242] | 1000 to 10000 nM
c1ccc2c(c1)CCC(Nc1cc(-c3nc(N4CCNCC4)c4c(C5CC5)cncc4n3)ccn1)C2 (stereo not drawn) [Example 2137] | < 100 nM

Request the reported IC50 associated with CN(c1nc(-c2ccnc3[nH]c(C(F)(F)F)cc23)nc2cncc(C3CC3)c12)C1CCNCC1 [Example 2070] < 100 nM

Which IC50 is reported for this compound? COc1cncc2nc(-c3ccnc(Nc4ccc(-c5ccccc5)cn4)c3)nc(N[C@@H]3CCNC3)c12 [Example 329] < 100 nM

Given the compound c1ccc(-n2cc(Nc3cc(-c4nc(N5CCNCC5)c5c(C6CC6)cncc5n4)ccn3)cn2)cc1 [Example 492] , what is its reported IC50? < 100 nM

I am curious: what IC50 value has been reported for Fc1ccc(F)c(Nc2cc(-c3nc(N4CCNCC4)c4c(C5CC5)cncc4n3)ccn2)c1F [Example 266] ? < 100 nM

Field request: IC50 | item: FC(F)(F)Cn1ccc(Nc2cc(-c3nc(N4CCNCC4)c4c(C5CC5)cncc4n3)ccn2)n1 [Example 2016] < 100 nM

###

We begin with a simple list: items and their reported IC50.
molecular target: full-length human PKCι (Homo sapiens, UniProt P41743); construct: Recombinant, full-length human PKCι expressed in Sf21 insect cells is also commercially available; experiment: PKCι IC50 IMAP assay, full-length PKCι at 150 μM ATP; conditions: read-out: IC50 in IMAP assay against full length PKCi at 150 μM ATP

Answered examples (4):
Fc1cnc(Nc2cc(-c3nc(NC4CCNCC4F)c4c(C5CC5)cncc4n3)ccn2)c(F)c1 (centres unmarked) | 100 to 1000 nM
CN1CCN(c2cccc(Nc3cc(-c4nc(N5CCCCCC5)c5c(C6CC6)cncc5n4)ccn3)c2)CC1 | 100 to 1000 nM
Fc1ccccc1-c1cc2c(-c3nc(N4CCNCC4)c4c(C5CCC5)cncc4n3)ccnc2[nH]1 | < 100 nM
COc1cncc2nc(-c3ccnc(Nc4cccc(C)c4F)c3)nc(N3CCNCC3)c12 | < 100 nM

We next turn to a different compound, shown below.
Item under review: `COc1cncc2nc(-c3ccnc(Nc4ccccc4)c3)nc(N3CCC[C@@H](O)C3)c12` . Reported IC50? 1000 to 10000 nM

###

target: full-length human PKCι (Homo sapiens, UniProt P41743); construct: Recombinant, full-length human PKCι expressed in Sf21 insect cells is also commercially available; purchased; host or cells: Sf21 insect cells; assay: PKCι IC50 IMAP assay, full-length PKCι at 150 μM ATP; assay type: biochemical; conditions: read-out: IC50 in IMAP assay against full length PKCi at 150 μM ATP
pIC50: −log10 of the molar value.
Endpoint label: pIC50

Some molecules with known pIC50 results, for comparison:
OC1CCN(c2nc(-c3ccnc(Nc4cccc(N5CCNCC5)c4)c3)nc3cncc(C4CC4)c23)CC1 | > 7.00
NC(=O)N[C@H](CNc1nc(-c2ccncc2)nc2cnccc12)Cc1ccccc1 | 4.40 to 5.00
COc1cncc2nc(-c3ccnc(Nc4cc(C)on4)c3)nc(N3CCNCC3)c12 | 4.40 to 5.00

For `COc1cncc2nc(-c3ccnc(NC(=O)[C@H](C)c4ccccc4)c3)nc(N3CCNCC3)c12` , what is its reported pIC50? 6.00 to 7.00

Record request: pIC50 value, item `COc1cncc2nc(-c3ccnc(Nc4ccccc4)c3)nc(N3CCC(N4CCOCC4)CC3)c12` 5.00 to 6.00

Any idea what its pIC50 is? The molecule is Fc1cnccc1-c1nc(N2CCNC(C(F)(F)F)C2)c2ccncc2n1 (stereo not shown) 4.40 to 5.00

Form field: reported pIC50 of `C[C@H]1CN(c2nc(-c3ccnc(Nc4nc(F)cc(F)c4F)c3)nc3cncc(C4CC4)c23)CCN1` > 7.00

###

molecular target: full-length human PKCι (Homo sapiens); construct: Recombinant, full-length human PKCι expressed in Sf21 insect cells is also commercially available; assay: PKCι IC50 IMAP assay, full-length PKCι at 150 μM ATP; details: read-out: IC50 in IMAP assay against full length PKCi at 150 μM ATP
Endpoint label: IC50

Please review the entries below; each comes with its answer.
CN(CC1CCNCC1)c1nc(-c2ccnc3[nH]c(C(F)(F)F)cc23)nc2cncc(C3CC3)c12 | < 100 nM
NC(=O)c1ccc(Nc2cc(-c3nc(N4CCNCC4)c4c(C5CC5)cncc4n3)ccn2)nc1 | < 100 nM
COc1cc2nccc(-c3nc(N4CCNCC4)c4c(C5CC5)cncc4n3)c2cc1OC | 10000 to 40000 nM
COc1cncc2nc(-c3ccnc(Nc4ccccc4)c3)nc(N3CCN[C@H](CF)C3)c12 | 100 to 1000 nM
Cc1ccc(F)c(Nc2cc(-c3nc(N4CCNCC4)c4c(C5CC5)cncc4n3)ccn2)c1 | < 100 nM

Given the compound `FC(F)(F)c1ncccc1Nc1cc(-c2nc(N3CCNCC3)c3c(C4CC4)cncc3n2)ccn1` , what is its reported IC50? 1000 to 10000 nM

Tell me the measured IC50 of `CS(=O)(=O)c1ccc(F)c(Nc2cc(-c3nc(N4CCNCC4)c4c(C5CC5)cncc4n3)ccn2)c1` , please. < 100 nM

Bench note: what IC50 did `N[C@H](CNc1nc(-c2ccncc2)nc2c(-c3cccc(-c4cccc(Cl)c4)c3)nccc12)Cc1ccccc1` show? 1000 to 10000 nM

Query (compound): `NC(=O)Cc1cccc(Nc2cc(-c3nc(N[C@@H]4CCNC4)c4ccncc4n3)ccn2)c1` ; field requested: IC50 100 to 1000 nM

Return reported IC50; argument: `CN(c1nc(-c2ccnc(Nc3c(F)cccc3F)c2)nc2cncc(C3CC3)c12)C1CCN(CC(F)F)CC1` 100 to 1000 nM

###

pIC50 reference
molecular target: full-length human PKCι (Homo sapiens); construct: Recombinant, full-length human PKCι expressed in Sf21 insect cells is also commercially available; assay: PKCι IC50 IMAP assay, full-length PKCι at 150 μM ATP; details: read-out: IC50 in IMAP assay against full length PKCi at 150 μM ATP
pIC50: −log10 of the molar value.

CCc1cccc(Nc2cc(-c3nc(N4CCNCC4)c4c(C5CC5)cncc4n3)ccn2)c1 [Example 623] | > 7.00
COCc1cc2c(-c3nc(N4CCNCC4)c4c(C5CC5)cncc4n3)ccnc2[nH]1 [Example 2075] | > 7.00

Any idea what its pIC50 is? The compound is COC[C@H]1CN(c2nc(N3CCOCC3)nc3cncc(OC)c23)CCN1 [Example 1009] 5.00 to 6.00

If you can, please state the reported pIC50 value of Fc1cccc(F)c1Nc1cc(-c2nc(NC[C@@H]3CCCN3)c3c(C4CC4)cncc3n2)ccn1 [Example 698] . 6.00 to 7.00

What does the data say about its pIC50? Entry: Fc1cccc(F)c1Nc1cc(-c2nc(NC3CNC3)c3c(C4CC4)cncc3n2)ccn1 [Example 2026] > 7.00
